pIC50 values by entry
biological target: UniProtKB P25103; test: Inhibitory activity against Tachykinin receptor 1 in human IM-9 cells using [125I]-labeled Boltan-Hunter substance P as radioligand
Recall that pIC50 is obtained by taking minus log10 of the concentration measured in molar.

[[record]]
compound = "COc1ccccc1CN(C[C@@H](Cc1c[nH]c2ccccc12)NC(=O)CN1CCN(C2CCCCC2)CC1)C(C)=O"
parameter_measured = "pIC50"
measured_number = 9.74

[[record]]
compound = "COc1ccccc1CC(=N)N1C[C@@H]2C(=O)CCC(c3ccccc3)(c3ccccc3)[C@@H]2C1"
parameter_measured = "pIC50"
measured_number = 7.52

[[record]]
compound = "CC(=O)N(Cc1ccccc1Cl)CC(Cc1c[nH]c2ccccc12)NC(=O)CN1CCN(c2ccccc2)CC1 (stereo not given)"
parameter_measured = "pIC50"
measured_number = 8.72

[[record]]
compound = "COc1ccccc1CN(CC(Cc1cccc2ccccc12)NC(=O)CN1CCN(c2ccccc2)CC1)C(C)=O (stereo not given)"
parameter_measured = "pIC50"
measured_number = 8.56

[[record]]
compound = "COc1ccccc1CN(CC(NC(=O)CN1CCN(c2ccccc2)CC1)c1ccc(Cl)c(Cl)c1)C(C)=O (stereo not given)"
parameter_measured = "pIC50"
measured_number = 6.47

[[record]]
compound = "CNC(=O)N(Cc1ccccc1OC)CC(Cc1c[nH]c2ccccc12)NC(=O)CN1CCN(c2ccccc2)CC1 (stereo not given)"
parameter_measured = "pIC50"
measured_number = 8.52


Recorded pIC50 (compound COc1ccccc1CNCC(Cc1c[nH]c2ccccc12)NC(=O)CN1CCN(c2ccccc2)CC1 (stereo not given) ): 7.29

What the record says about COc1ccccc1CN(CC(Cc1c[nH]c2ccccc12)NC(=O)CN1CCOCC1)C(C)=O (stereo not given) : pIC50 is 7.57

Field pIC50 (entry CCCCN(CC(Cc1c[nH]c2ccccc12)NC(=O)CN1CCN(c2ccccc2)CC1)C(C)=O (stereo not given) ) reads 6.83

The value of pIC50 measured for the compound COc1ccccc1CN(CC(Cc1c[nH]c2ccccc12)NC(=O)CN1CCCCC1)C(C)=O (stereo not given) turned out to be 7.48

###

Let's look at some molecules and their measured IC50.
biological target: Substance-P receptor (Homo sapiens, UniProt P25103); test: Inhibitory activity against Tachykinin receptor 1 in human IM-9 cells using [125I]-labeled Boltan-Hunter substance P as radioligand
Sequence (P25103 whole entry): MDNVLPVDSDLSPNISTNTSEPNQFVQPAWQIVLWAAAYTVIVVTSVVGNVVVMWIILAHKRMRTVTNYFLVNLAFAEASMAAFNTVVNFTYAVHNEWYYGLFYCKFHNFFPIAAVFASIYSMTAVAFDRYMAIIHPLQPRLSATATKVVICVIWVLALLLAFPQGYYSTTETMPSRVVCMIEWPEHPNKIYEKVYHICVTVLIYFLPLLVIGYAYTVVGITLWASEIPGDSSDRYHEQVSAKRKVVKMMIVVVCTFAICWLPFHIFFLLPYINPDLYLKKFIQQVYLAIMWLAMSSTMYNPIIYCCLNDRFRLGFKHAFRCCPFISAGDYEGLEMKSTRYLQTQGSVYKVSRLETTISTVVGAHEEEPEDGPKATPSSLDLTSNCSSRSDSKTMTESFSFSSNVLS
Unit nM implied. Number only.

Recorded IC50, per entry:
[[record]]
molecule = "CC(=O)N(Cc1ccccc1)CC(Cc1c[nH]c2ccccc12)NC(=O)CN1CCN(c2ccccc2)CC1 (stereo not drawn)"
assayed_target = "Substance-P receptor (Homo sapiens, UniProt P25103)"
measured_number = 2.2

[[record]]
molecule = "CC(=O)N(Cc1ccccc1Cl)C[C@H](Cc1c[nH]c2ccccc12)NC(=O)CN1CCC(N2CCCCC2)CC1"
assayed_target = "Substance-P receptor (Homo sapiens, UniProt P25103)"
measured_number = 159

[[record]]
molecule = "COc1ccccc1CN(CC(NC(=O)CN1CCN(c2ccccc2)CC1)c1ccccc1)C(C)=O (stereo not drawn)"
assayed_target = "Substance-P receptor (Homo sapiens, UniProt P25103)"
measured_number = 474

[[record]]
molecule = "COc1ccccc1CN(C=O)CC(Cc1c[nH]c2ccccc12)NC(=O)CN1CCN(c2ccccc2)CC1 (stereo not drawn)"
assayed_target = "Substance-P receptor (Homo sapiens, UniProt P25103)"
measured_number = 0.8


# lookup: COc1ccccc1CN(CC(Cc1c[nH]c2ccccc12)NC(=O)CN1CCN(c2ccccc2)CC1)C(=O)CN(C)C (stereo not drawn) on Substance-P receptor (Homo sapiens, UniProt P25103), IC50 = 1.54

The recorded IC50 with Substance-P receptor (Homo sapiens, UniProt P25103) for CCC(=O)N(Cc1ccccc1OC)CC(Cc1c[nH]c2ccccc12)NC(=O)CN1CCN(c2ccccc2)CC1 (stereo not drawn) was 0.81

Simply: CC(=O)N(Cc1ccccc1Cl)CC(Cc1c[nH]c2ccccc12)NC(=O)CN1CCC(N2CCCCC2)CC1 (stereo not drawn) , Substance-P receptor (Homo sapiens, UniProt P25103), IC50 = 0.18

Substance-P receptor (Homo sapiens, UniProt P25103) data for COc1ccccc1CN(CC(Cc1c[nH]c2ccccc12)NC(=O)CN1CC=C(c2ccccc2)CC1)C(C)=O (stereo not drawn) ; its IC50: 3.1
